Data origin, for the record: the supplement of paper PMC10567573

B1: NP_009172.2 (parent)
chain: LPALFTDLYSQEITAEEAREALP

variants of: B1; experiment: protein stability index of a GFP-peptide fusion (GPS, HEK-293T) (PSI 1-6); higher = more stable; conditions: c terminus: native;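 further: lentivirally expressed fusion library, cells FACS-sorted into six equal-sized GFP/DsRed ratio bins, PSI computed from sequencing read fractions per bin weighted by bin number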
For each of the variants below, state its protein stability index.

Task: If you can, please state the reported protein stability index value of L1M .
Output: 2.91

Task: Consider the variant S10G and give its measured protein stability index.
Output: 3.08

Task: Look up protein stability index: I13A
Output: 2.97

Task: Query: protein stability index; subject: Q11N
Output: 2.92
